test: Volume of distribution at steady state in ICR mouse plasma at 0.1 mg/kg, iv administered as cassette dose by LC-MS/MS analysis; format: ADME, organism-based; details: read-out: Vdss
TEST_READOUT: Vd (L/kg)
Answer with a number only, understood to be in L/kg.

Q: If you can, please state the reported Vd value of COCCNC(=O)c1ccc(Oc2sc(C(N)=O)c3c2-c2sncc2CC3)cn1 .
Result: 2.14

* * *

experiment: Cmax in ICR mouse plasma at 1 mg/kg, po administered as cassette dose by LC-MS/MS analysis; assay type: ADME, organism-based; parameters: dose 1 mg/kg, route oral
TEST_READOUT: Cmax (ng/mL)
Answer with a number only, understood to be in ng/mL.

Q: If you can, please state the reported Cmax value of COCCNC(=O)c1ccc(Oc2sc(C(N)=O)c3c2-c2sncc2CC3)cn1 .
Result: 362

meta.source: ChEMBL document CHEMBL4028808
